assay: AR reductase activity, NAD(P)H oxidation at 340 nm; format: biochemical; settings: 10 mM; ND = no activity was detected
measure: Activity [U/mg protein] Butyraldehyde (U/mg protein)

{"molecule": "PSPTO_2097: aldehyde reductase (AR) from Pseudomonas syringae (protein) MIEHLKLAGKVALVQGGSRGIGAAIVNRLAKEGAAVAFTYINSEVNALEIQDSINANGGRALAIRADSADEKAIRQAVQTTAETLGRLDILVNNAGVLAIAPLNEFSMQDFDKTLAINVRSVFIASQEAARHMEEGGRIINIGSTNAERMPFAGGATYAMSKSALIGLTKGMARDLGPQGITVNNVQPGPVDTDMNPAQGEFAESLKALMALPRYGKSEEIASFVAYLAGPEAGYITGASLTIDGGFSA", "measure": "Activity [U/mg protein] Butyraldehyde", "assay_value": 0.59}
{"molecule": "RPA0021: aldehyde reductase (AR) from Rhodopseudomonas palustris (protein) MTPRNATVAVIGAGDYIGAEIAKKFAAEGFTVFAGRRNGEKLAPLVAEIEAAGGRIVARSLDARNEDEVTAFLNAADAHAPLEVTIFNVGANVNFPILETTDRVFRKVWEMACWAGFVSGRESARLMLAHGQGKIFFTGATASLRGGSGFAAFASAKFGLRAVAQSMARELMPKNIHVAHLIIDSGVDTAWVRERREQMFGKDALANPDLLMPPAAVAGAYWQLYQQPKSAWTFEMEIRPYGEKW", "measure": "Activity [U/mg protein] Butyraldehyde", "assay_value": 0.116}
{"molecule": "PP_3370: aldehyde reductase (AR) from Pseudomonas putida (protein) MQYVKLGSTGLDISRLCLGCMTFGEPDAGTHPWTLGEDASRPIIRHAVEQGINFFDTANSYSAGTSEIILGKLLREFTRREETVIATKVFFPANMWEGASRPNEQGLSRKAIMANIDASLSRLGTDYVDLYQIHRWDYHTPIEETMEALHDVVKAGKARYIGASSMYAWQFAKAQQVAANHGWSRFVSMQNYLNLIYREEEREMIPLCLDQGVGLMPWSPMARGRLTRPHGQQTQRTRTDVSGQSFYEKTEVEDGRVIDVVEQIASERGVPMAQVALAWVLGRAGVSAPIVGASKPAHLDDALGALSLQLSEDEVARLQAPYVPHAVTGFK", "measure": "Activity [U/mg protein] Butyraldehyde", "assay_value": 1.516}
